Cited source for all entries: ChEMBL document CHEMBL4118086

Listed here are molecules together with their documented Kd.
TARGET_SYSTEM: Phosphatidylinositol 4,5-bisphosphate 3-kinase catalytic subunit alpha isoform (Homo sapiens)
Sequence (P42336 whole entry, the tested form may be a part, canonical isoform): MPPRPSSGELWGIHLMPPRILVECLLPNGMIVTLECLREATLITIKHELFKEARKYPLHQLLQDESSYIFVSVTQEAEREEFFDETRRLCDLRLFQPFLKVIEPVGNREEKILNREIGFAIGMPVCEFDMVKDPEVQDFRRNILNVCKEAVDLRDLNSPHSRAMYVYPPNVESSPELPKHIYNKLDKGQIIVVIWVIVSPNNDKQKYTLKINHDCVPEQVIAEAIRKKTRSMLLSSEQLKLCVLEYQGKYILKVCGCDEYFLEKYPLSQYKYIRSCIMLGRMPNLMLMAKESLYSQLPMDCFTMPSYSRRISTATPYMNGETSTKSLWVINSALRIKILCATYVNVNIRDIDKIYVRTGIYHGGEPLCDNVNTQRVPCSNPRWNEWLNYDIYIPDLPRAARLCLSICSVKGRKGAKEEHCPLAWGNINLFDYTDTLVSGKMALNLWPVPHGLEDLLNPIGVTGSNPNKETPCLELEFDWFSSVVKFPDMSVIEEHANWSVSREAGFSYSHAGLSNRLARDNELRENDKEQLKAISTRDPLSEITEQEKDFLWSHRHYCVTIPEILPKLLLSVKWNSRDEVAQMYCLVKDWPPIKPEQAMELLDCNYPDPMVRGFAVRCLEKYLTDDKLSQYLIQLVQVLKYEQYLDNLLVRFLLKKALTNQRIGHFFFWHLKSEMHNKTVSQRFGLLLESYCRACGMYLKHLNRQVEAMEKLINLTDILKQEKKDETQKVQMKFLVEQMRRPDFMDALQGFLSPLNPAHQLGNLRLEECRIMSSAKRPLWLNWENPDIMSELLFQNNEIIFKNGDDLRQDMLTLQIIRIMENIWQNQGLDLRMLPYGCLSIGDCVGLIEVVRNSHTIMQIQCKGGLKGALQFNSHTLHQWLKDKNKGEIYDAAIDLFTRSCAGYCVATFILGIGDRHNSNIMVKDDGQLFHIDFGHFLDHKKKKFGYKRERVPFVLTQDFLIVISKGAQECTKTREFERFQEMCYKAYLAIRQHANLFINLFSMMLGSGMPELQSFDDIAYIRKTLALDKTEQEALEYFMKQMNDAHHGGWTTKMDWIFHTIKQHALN
METHOD_SUMMARY: Binding affinity to wild-type human PIK3Calpha (R108 to N1068 residues) expressed in mammalian expression system by KINOMEScan assay
Please append the unit to your numeric answer.

Example entries begin here.
[
  {
    "MOLECULE": "Cc1c(F)cccc1NCc1cc(C(=O)NCCN(C)C)cc2ncc(N3CCOCC3)nc12",
    "RESULT": "1910 nM"
  },
  {
    "MOLECULE": "C[C@@H](Nc1cccc(F)c1)c1cc(C(=O)NCCO)cc2ncc(N3CCOCC3)nc12",
    "RESULT": "1100 nM"
  },
  {
    "MOLECULE": "C[C@@H]1CN(C(=O)c2cc(C3CCCN3c3cc(F)cc(F)c3)c3nc(N4CCOCC4)cnc3c2)C[C@H](C)N1 (mixture of isomers)",
    "RESULT": "14 nM"
  }
]

Now consider the entry below.
Give its Kd value. Item: CN(C)C(=O)c1cc([C@H]2CCCN2c2cc(F)cc(F)c2)c2nc(N3CCOCC3)cnc2c1 34 nM

====

TARGET_SYSTEM: Serine/threonine-protein kinase mTOR (Homo sapiens, UniProt P42345)
MEASUREMENT_NAME: pKd
To interpret pKd, take it as minus log10 of a concentration measured in moles per litre.

[
  {
    "INPUT_SMILES": "C[C@@H](Nc1cccc(F)c1)c1cc(C(=O)NCCO)cc2ncc(N3CCOCC3)nc12",
    "pKd": 4.77
  }
]

What reported pKd corresponds to CN(C)C(=O)c1cc([C@H]2CCCN2c2cc(F)cc(F)c2)c2nc(N3CCOCC3)cnc2c1 on Serine/threonine-protein kinase mTOR (Homo sapiens, UniProt P42345)? 4.55

====

TARGET_SYSTEM: Phosphatidylinositol 4,5-bisphosphate 3-kinase catalytic subunit delta isoform (Homo sapiens, UniProt O00329)
Sequence (O00329 whole entry, the tested form may be a part, canonical isoform): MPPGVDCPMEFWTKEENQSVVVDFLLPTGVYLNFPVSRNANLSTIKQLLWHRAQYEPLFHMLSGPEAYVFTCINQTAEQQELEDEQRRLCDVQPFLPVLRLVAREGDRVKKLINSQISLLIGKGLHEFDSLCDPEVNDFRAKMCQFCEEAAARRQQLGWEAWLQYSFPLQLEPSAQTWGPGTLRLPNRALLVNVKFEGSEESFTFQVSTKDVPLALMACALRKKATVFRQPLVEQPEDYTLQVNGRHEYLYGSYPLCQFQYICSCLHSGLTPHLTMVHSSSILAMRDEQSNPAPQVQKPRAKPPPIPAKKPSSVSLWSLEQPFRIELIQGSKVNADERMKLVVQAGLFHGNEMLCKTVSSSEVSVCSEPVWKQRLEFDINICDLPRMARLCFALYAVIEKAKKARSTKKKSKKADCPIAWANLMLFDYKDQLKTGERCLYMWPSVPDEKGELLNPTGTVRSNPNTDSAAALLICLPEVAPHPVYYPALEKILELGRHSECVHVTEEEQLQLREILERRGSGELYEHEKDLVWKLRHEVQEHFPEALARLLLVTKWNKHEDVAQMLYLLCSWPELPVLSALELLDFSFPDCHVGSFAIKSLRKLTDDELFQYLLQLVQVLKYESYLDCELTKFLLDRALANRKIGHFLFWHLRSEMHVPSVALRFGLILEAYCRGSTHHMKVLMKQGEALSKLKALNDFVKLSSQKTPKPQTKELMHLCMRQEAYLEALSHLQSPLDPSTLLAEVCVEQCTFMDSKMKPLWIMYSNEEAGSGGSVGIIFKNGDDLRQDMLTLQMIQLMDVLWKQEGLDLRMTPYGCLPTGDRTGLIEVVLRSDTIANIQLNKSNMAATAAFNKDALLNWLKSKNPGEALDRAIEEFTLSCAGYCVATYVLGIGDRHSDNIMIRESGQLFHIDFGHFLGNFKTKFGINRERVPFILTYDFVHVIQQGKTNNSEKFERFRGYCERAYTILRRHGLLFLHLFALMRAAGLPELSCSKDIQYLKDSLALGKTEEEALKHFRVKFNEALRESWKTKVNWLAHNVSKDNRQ
METHOD_SUMMARY: Binding affinity to wild-type human PIK3Cdelta (R108 to Q1044 residues) expressed in mammalian expression system by KINOMEScan assay
Listed here are compounds together with their documented pKd.
To interpret pKd, take it as minus log10 of a concentration measured in moles per litre.

Give its pKd value. Item: CN(C)C(=O)c1cc([C@H]2CCCN2c2cc(F)cc(F)c2)c2nc(N3CCOCC3)cnc2c1 7.82

====

TARGET_SYSTEM: Phosphatidylinositol 4,5-bisphosphate 3-kinase catalytic subunit beta isoform (Homo sapiens)
METHOD_SUMMARY: Binding affinity to wild-type human PIK3Cbeta (P118 to S1070 residues) expressed in mammalian expression system by KINOMEScan assay
Listed here are compounds together with their documented Kd.
Quick reminder: number only, in nM, skip the unit.

[
  {
    "COMPOUND": "CN(C)C(=O)c1cc([C@H]2CCCN2c2cc(F)cc(F)c2)c2nc(N3CCOCC3)cnc2c1",
    "Kd (nM)": 0.3
  },
  {
    "COMPOUND": "C[C@@H]1CN(C(=O)c2cc(C3CCCN3c3cc(F)cc(F)c3)c3nc(N4CCOCC4)cnc3c2)C[C@H](C)N1 (mixture of isomers)",
    "Kd (nM)": 0.2
  },
  {
    "COMPOUND": "C[C@@H](Nc1cccc(F)c1)c1cc(C(=O)NCCO)cc2ncc(N3CCOCC3)nc12",
    "Kd (nM)": 3
  }
]

Now consider the entry below.
Give its Kd value. Item: Cc1c(F)cccc1NCc1cc(C(=O)NCCN(C)C)cc2ncc(N3CCOCC3)nc12 0.2

====

TARGET_SYSTEM: Phosphatidylinositol 4,5-bisphosphate 3-kinase catalytic subunit gamma isoform (Homo sapiens, UniProt P48736)
Sequence (P48736 whole entry, the tested form may be a part, canonical isoform): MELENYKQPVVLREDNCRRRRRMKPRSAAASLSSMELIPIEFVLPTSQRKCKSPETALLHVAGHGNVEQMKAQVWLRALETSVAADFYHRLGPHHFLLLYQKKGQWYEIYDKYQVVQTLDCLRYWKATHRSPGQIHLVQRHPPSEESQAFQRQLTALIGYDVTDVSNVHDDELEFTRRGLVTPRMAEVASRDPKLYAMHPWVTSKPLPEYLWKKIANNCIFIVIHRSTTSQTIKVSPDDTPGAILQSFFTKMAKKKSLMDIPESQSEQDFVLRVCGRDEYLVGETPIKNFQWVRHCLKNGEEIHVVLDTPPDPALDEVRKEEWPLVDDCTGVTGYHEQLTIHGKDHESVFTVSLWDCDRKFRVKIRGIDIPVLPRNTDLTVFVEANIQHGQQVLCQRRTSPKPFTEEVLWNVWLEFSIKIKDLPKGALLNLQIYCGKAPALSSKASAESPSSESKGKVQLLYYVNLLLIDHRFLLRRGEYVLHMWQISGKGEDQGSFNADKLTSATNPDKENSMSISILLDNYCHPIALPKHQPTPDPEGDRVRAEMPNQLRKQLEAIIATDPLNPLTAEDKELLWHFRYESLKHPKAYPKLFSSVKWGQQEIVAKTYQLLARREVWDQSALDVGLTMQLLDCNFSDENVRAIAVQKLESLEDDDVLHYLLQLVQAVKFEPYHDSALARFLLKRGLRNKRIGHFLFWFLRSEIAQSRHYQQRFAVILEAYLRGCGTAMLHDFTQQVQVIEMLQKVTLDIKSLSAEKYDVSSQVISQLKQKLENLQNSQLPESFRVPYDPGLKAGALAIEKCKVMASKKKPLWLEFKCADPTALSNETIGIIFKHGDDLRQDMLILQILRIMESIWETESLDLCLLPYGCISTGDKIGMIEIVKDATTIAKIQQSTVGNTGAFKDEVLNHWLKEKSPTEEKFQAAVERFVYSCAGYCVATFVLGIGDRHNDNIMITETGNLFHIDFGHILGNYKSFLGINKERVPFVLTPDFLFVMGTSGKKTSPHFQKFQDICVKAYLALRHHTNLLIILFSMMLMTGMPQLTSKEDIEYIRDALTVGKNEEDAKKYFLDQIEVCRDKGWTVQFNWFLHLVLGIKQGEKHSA
METHOD_SUMMARY: Binding affinity to wild-type human PIK3Cgamma (S144 to A1102 residues) expressed in mammalian expression system by KINOMEScan assay
MEASUREMENT_NAME: Kd

Example entries begin here.
[
  {
    "MOLECULE": "CN(C)C(=O)c1cc([C@H]2CCCN2c2cc(F)cc(F)c2)c2nc(N3CCOCC3)cnc2c1",
    "Kd": "0.313 µM"
  },
  {
    "MOLECULE": "C[C@@H](Nc1cccc(F)c1)c1cc(C(=O)NCCO)cc2ncc(N3CCOCC3)nc12",
    "Kd": "3.41 µM"
  },
  {
    "MOLECULE": "CN(C)C(=O)c1cc([C@@H]2CCCN2c2cc(F)cc(F)c2)c2nc(N3CCOCC3)cnc2c1",
    "Kd": "> 30.2 µM"
  },
  {
    "MOLECULE": "C[C@@H]1CN(C(=O)c2cc(C3CCCN3c3cc(F)cc(F)c3)c3nc(N4CCOCC4)cnc3c2)C[C@H](C)N1 (mixture of isomers)",
    "Kd": "0.214 µM"
  }
]

Now consider the entry below.
Give its Kd value. Item: Cc1c(F)cccc1NCc1cc(C(=O)NCCN(C)C)cc2ncc(N3CCOCC3)nc12 6.61 µM

====

TARGET_SYSTEM: Phosphatidylinositol 4,5-bisphosphate 3-kinase catalytic subunit beta isoform (Homo sapiens, UniProt P42338)
Sequence (P42338 whole entry, the tested form may be a part, canonical isoform): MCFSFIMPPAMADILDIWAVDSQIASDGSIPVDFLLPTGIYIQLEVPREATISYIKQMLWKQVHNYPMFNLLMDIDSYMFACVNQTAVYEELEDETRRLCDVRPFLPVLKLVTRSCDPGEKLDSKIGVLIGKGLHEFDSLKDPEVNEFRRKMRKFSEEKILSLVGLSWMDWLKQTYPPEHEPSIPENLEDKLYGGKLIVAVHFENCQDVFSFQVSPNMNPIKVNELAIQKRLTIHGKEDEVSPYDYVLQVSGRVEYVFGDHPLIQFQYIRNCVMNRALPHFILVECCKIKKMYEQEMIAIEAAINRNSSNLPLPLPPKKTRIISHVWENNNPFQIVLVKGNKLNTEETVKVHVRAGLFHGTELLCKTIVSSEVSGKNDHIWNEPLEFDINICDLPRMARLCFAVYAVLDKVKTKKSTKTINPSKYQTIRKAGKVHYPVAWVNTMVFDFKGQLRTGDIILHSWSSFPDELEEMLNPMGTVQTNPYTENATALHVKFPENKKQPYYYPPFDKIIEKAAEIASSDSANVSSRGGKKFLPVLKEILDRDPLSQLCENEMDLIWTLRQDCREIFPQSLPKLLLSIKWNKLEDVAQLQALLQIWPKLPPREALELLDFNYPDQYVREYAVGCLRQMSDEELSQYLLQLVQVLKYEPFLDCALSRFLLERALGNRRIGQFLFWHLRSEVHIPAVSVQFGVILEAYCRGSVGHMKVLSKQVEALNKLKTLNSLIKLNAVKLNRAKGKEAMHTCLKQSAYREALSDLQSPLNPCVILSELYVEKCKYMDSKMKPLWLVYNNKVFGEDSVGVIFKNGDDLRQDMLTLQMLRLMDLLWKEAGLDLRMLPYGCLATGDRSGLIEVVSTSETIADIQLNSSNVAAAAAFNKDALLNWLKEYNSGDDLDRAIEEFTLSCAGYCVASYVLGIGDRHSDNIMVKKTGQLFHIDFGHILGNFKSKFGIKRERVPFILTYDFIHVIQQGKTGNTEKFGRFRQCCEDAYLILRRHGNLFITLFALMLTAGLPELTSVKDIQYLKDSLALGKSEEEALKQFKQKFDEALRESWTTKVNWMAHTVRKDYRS
METHOD_SUMMARY: Inhibition of PI3Kbeta in human PC3 cells assessed as reduction in AKT phosphorylation at Thr308 residue measured after 60 mins by ELISA
Format: cell-based
Listed here are compounds together with their documented log10 of IC50.
Scale type: logarithmic (base 10). Underlying IC50 unit: nM.

[
  {
    "COMPOUND": "C[C@@H](Nc1cc(F)cc(F)c1)c1cc(C(=O)NCCN(C)C)cc2ncc(N3CCOCC3)nc12",
    "log10 of IC50": 0.30
  },
  {
    "COMPOUND": "CN(C)C(=O)c1cc(C2CCCN2c2cc(F)cc(F)c2)c2nc(N3CCOCC3)cnc2c1 (racemic)",
    "log10 of IC50": 0.13
  },
  {
    "COMPOUND": "C[C@@H]1CN(C(=O)c2cc(C3CCCN3c3cc(F)cc(F)c3)c3nc(N4CCOCC4)cnc3c2)C[C@H](C)N1 (mixture of isomers)",
    "log10 of IC50": 0.70
  },
  {
    "COMPOUND": "CN(C)C(=O)c1cc([C@H]2CCCN2c2cc(F)cc(F)c2)c2nc(N3CCOCC3)cnc2c1",
    "log10 of IC50": 0.48
  },
  {
    "COMPOUND": "C[C@@H](Nc1cccc(F)c1)c1cc(C(=O)NCCO)cc2ncc(N3CCOCC3)nc12",
    "log10 of IC50": 1.64
  },
  {
    "COMPOUND": "Cc1c(F)cccc1NCc1cc(C(=O)NCCN(C)C)cc2ncc(N3CCOCC3)nc12",
    "log10 of IC50": 0.95
  }
]

Give its log10 of IC50 value. Item: CC(Nc1cc(F)cc(F)c1)c1cc(C(=O)NCCN(C)C)cc2ncc(N3CCOCC3)nc12 (racemic) 0.48

Now try CNCCNC(=O)c1cc(C(C)Nc2cccc(F)c2)c2nc(N3CCOCC3)cnc2c1 (racemic) . 0.78

Now try C[C@H](Nc1cc(F)cc(F)c1)c1cc(C(=O)NCCN(C)C)cc2ncc(N3CCOCC3)nc12 . 2.17

====

Listed here are compounds together with their documented IC50.
TARGET_SYSTEM: Phosphatidylinositol 4,5-bisphosphate 3-kinase catalytic subunit beta isoform (Homo sapiens)
METHOD_SUMMARY: Inhibition of PI3Kbeta in human PC3 cells assessed as reduction in AKT phosphorylation at S473 residue measured after 60 mins by ELISA
Format: cell-based

Example entries begin here.
[
  {
    "COMPOUND": "CN(C)C(=O)c1cc(C2CCCN2c2cc(F)cc(F)c2)c2nc(N3CCOCC3)cnc2c1 (racemic)",
    "MEASUREMENT_NAME": "IC50",
    "RESULT": "4 nM"
  },
  {
    "COMPOUND": "CN(C)C(=O)c1cc([C@@H]2CCCN2c2cc(F)cc(F)c2)c2nc(N3CCOCC3)cnc2c1",
    "MEASUREMENT_NAME": "IC50",
    "RESULT": "> 513 nM"
  },
  {
    "COMPOUND": "CNCCNC(=O)c1cc(C(C)Nc2cccc(F)c2)c2nc(N3CCOCC3)cnc2c1 (racemic)",
    "MEASUREMENT_NAME": "IC50",
    "RESULT": "7 nM"
  },
  {
    "COMPOUND": "Cc1c(F)cccc1NCc1cc(C(=O)NCCN(C)C)cc2ncc(N3CCOCC3)nc12",
    "MEASUREMENT_NAME": "IC50",
    "RESULT": "9 nM"
  },
  {
    "COMPOUND": "C[C@@H]1CN(C(=O)c2cc(C3CCCN3c3cc(F)cc(F)c3)c3nc(N4CCOCC4)cnc3c2)C[C@H](C)N1 (mixture of isomers)",
    "MEASUREMENT_NAME": "IC50",
    "RESULT": "7 nM"
  }
]

Give its IC50 value. Item: C[C@@H](Nc1cc(F)cc(F)c1)c1cc(C(=O)NCCN(C)C)cc2ncc(N3CCOCC3)nc12 2 nM

Now try C[C@@H](Nc1cccc(F)c1)c1cc(C(=O)NCCO)cc2ncc(N3CCOCC3)nc12 . 49 nM

Now try C[C@H](Nc1cccc(F)c1)c1cc(C(=O)NCCO)cc2ncc(N3CCOCC3)nc12 . > 513 nM

Now try CC(Nc1cc(F)cc(F)c1)c1cc(C(=O)NCCN(C)C)cc2ncc(N3CCOCC3)nc12 (racemic) . 6 nM

Now try CN(C)C(=O)c1cc([C@H]2CCCN2c2cc(F)cc(F)c2)c2nc(N3CCOCC3)cnc2c1 . 2 nM

Now try C[C@H](Nc1cc(F)cc(F)c1)c1cc(C(=O)NCCN(C)C)cc2ncc(N3CCOCC3)nc12 . 331 nM
